- Assay System: N-type calcium channels (α1B+α2δ+β1b cDNA subunits) (Rattus norvegicus)
- Sequence (Q02294 whole entry): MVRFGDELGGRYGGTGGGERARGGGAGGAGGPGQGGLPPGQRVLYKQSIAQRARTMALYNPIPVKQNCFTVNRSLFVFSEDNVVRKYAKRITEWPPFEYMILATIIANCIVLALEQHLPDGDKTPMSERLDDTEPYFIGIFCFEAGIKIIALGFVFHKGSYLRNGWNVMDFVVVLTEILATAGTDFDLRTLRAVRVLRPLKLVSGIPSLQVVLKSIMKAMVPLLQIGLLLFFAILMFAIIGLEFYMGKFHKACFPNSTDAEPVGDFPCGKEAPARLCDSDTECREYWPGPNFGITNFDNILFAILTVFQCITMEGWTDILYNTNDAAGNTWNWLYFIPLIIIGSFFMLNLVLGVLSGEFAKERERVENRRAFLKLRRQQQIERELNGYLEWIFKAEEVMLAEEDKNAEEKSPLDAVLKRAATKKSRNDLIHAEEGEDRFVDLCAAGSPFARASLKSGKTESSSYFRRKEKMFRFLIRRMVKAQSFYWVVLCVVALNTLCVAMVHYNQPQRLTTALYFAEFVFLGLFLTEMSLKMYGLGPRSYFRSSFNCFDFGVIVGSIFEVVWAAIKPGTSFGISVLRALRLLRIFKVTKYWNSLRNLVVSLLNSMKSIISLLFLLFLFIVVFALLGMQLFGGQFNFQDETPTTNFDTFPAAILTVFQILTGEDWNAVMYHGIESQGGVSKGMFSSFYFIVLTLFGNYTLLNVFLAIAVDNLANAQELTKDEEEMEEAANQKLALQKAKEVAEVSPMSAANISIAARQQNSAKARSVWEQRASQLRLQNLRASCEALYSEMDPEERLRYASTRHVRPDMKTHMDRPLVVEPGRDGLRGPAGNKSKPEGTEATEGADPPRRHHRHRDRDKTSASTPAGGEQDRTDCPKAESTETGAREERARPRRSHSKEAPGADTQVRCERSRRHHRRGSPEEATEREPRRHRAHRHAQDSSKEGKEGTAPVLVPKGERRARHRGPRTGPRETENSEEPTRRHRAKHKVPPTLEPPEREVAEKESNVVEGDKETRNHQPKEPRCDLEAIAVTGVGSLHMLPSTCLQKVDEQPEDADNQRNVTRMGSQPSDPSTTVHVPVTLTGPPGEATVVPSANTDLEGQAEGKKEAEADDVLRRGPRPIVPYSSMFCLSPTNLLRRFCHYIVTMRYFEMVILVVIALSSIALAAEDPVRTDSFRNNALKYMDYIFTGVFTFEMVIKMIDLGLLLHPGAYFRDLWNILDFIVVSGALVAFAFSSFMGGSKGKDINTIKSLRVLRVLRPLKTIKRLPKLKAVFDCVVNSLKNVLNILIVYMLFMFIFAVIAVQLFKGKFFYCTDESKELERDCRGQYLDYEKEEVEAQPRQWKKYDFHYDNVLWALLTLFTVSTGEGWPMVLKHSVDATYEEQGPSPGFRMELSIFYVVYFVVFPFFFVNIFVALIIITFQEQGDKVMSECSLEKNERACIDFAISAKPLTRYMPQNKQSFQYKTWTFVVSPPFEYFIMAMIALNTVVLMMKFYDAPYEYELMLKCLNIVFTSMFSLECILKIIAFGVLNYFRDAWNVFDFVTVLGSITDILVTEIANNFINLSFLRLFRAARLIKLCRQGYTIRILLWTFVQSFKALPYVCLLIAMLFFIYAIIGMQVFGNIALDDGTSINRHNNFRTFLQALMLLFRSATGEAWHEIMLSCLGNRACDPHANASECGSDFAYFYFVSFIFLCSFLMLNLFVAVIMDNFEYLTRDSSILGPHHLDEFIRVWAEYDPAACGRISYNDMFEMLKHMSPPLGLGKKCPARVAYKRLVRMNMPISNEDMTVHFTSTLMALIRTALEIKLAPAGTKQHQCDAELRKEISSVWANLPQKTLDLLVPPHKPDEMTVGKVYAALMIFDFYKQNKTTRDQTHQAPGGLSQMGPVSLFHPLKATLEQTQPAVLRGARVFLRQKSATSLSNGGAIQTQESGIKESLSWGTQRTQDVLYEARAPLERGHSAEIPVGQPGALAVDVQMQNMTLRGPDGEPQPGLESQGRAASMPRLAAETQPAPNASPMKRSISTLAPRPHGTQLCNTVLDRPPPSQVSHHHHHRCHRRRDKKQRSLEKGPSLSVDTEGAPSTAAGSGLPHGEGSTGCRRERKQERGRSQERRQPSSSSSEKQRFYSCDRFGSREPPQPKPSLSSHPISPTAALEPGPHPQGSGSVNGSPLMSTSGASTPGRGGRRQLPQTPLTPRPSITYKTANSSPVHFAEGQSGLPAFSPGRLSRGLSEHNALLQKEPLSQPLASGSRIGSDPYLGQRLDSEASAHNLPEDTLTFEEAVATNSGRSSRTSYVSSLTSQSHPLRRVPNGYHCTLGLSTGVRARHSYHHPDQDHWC
- Assay Comment: Selectivity patch clamp, N-type channels in HEK 293 (Example 7)
- Experimental Conditions: Tested at 0.1 Hz, 5 mM Ba2+
pIC50: −log10 of the molar value.
Measure Name: pIC50

I: O=C(CC(c1ccccc1)c1ccccc1)N1CCN(C(c2ccccc2)c2ccc3c(c2)OCO3)CC1 (stereo not shown) [Compound P7]
II: O=C(CC(c1ccccc1)c1ccccc1)N1CCN(C(c2ccccc2)c2ccc(Cl)cc2)CC1 (stereo not shown) [Compound P6]
Compare I and II and name the one whose reported pIC50 is smaller. Give the label of your selection.
II
(II: 6.80, I: 7.00)

I: O=C(CC(c1ccccc1)c1ccccc1)N1CCN(C(c2ccccc2)c2cccc(C(F)(F)F)c2)CC1 (stereo not shown) [Compound P2]
II: Cl.O=C(O)C1CN(C(c2ccccc2)c2ccccc2)CCN1C(=O)CC(c1ccccc1)c1ccccc1 (stereo not shown) [Compound P8]
III: Cc1ccc(C(c2ccccc2)N2CCN(C(=O)CC(c3ccccc3)c3ccccc3)CC2)c(C)c1 (stereo not shown) [Compound P18]
Rank items: key pIC50, increasing. Provide the labels, sequenced as the question asks.
II, III, I

P: O=C(CC(c1ccccc1)c1ccccc1)N1CCN(C(c2ccccc2)c2ccc(Cl)cc2Cl)CC1 (stereo not shown) [Compound P29]
Q: O=C(CC(c1ccccc1)c1ccccc1)N1CCN(C(c2ccccc2)c2cccc(Cl)c2)CC1 (stereo not shown) [Compound P36]
Compare P and Q and name the one whose reported pIC50 is smaller. Give the label of your selection.
P

Numbers sourced from patent US20040259866A1.
